Reference source: the supplement of paper PMC9112550

Test system: Escherichia coli TOP10;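 further: peptides expressed intracellularly from a pBAD plasmid library in pooled LB shake-flask culture, induced with 0.3% L-arabinose, DNA abundance read by NGS, three biological replicates, DESeq2 with apeglm shrinkage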
method-description: shrunken log2 fold change of peptide-encoding DNA abundance (4.5 h post-induction vs induction); higher = less antimicrobial activity (less host growth inhibition)
experimental-conditions: time post-induction: 4.5 h; library: site-saturation at positions 5, 18, 19, 20
Label scheme for shrunken log2 fold change: lower than -0.1 is not met, -0.1 and above is met.

# input Has "RRIRFRPPRLPRPRPRPFFSPRP" a recorded shrunken log2 fold change greater than or equal to -0.1?
# output not met

# input Has "RRIRGRPPRLPRPRPRPNVNPRP" a recorded shrunken log2 fold change greater than or equal to -0.1?
# output met

# input Has "RRIRHRPPRLPRPRPRPGRAPRP" a recorded shrunken log2 fold change greater than or equal to -0.1?
# output met

# input Has "RRIRMRPPRLPRPRPRPCSGPRP" a recorded shrunken log2 fold change greater than or equal to -0.1?
# output not met

# input Has "RRIRRRPPRLPRPRPRPIFTPRP" a recorded shrunken log2 fold change greater than or equal to -0.1?
# output met

# input Has "RRIRVRPPRLPRPRPRPDLSPRP" a recorded shrunken log2 fold change greater than or equal to -0.1?
# output met

# input Has "RRIRDRPPRLPRPRPRPNLTPRP" a recorded shrunken log2 fold change greater than or equal to -0.1?
# output not met

# input Has "RRIRSRPPRLPRPRPRPMIRPRP" a recorded shrunken log2 fold change greater than or equal to -0.1?
# output met
